test system: SK-MEL-5; experiment: NCI tumour cell line growth inhibition, 48 h
Activity calls are given as the source filed them. No stated cut-off is given here; in the data, active = GI50 up to about 1.1 µM and inactive = higher.
Labels: 1 for active, 0 for inactive

                                    compound  group
 0     Cc1nc2c(n1-c1ccccc1)C(=O)c1ccccc1C2=O      0
 1  CN1CN(c2ccccc2)C2(CCN(Cc3nc4ccccc4s3)CC2)C1=O      0
 2         Cc1ccc(C(=O)OCC(C)C)cc1/N=N/N(C)C      0
 3   CC/C(=N\NC(=O)c1cccnc1)c1ccc2c(c1)OCCO2      0
 4  CC(C)/C(Cl)=N/OC(=O)Nc1ccc(OC(F)(F)F)cc1      0
 5  CC(C)=CCc1cc2c(cc1O)OC[C@H]1c3cc4c(cc3O[C@@H]21)OCO4      0
 6   Nc1nc(Cl)c(/C=N\O)c(NCC2(CO)CC(=O)C2)n1      0
 7  COc1cccc(C=C2N=C(C)N(n3c(-c4ccccc4)nc4ccccc4c3=O)C2=O)c1      0
 8  OC1c2ccccc2C2(O)C1C(c1ccccc1)C(c1ccccc1)C2(O)c1ccccc1 (stereo not given)      0
 9  COC(CN(C(=O)c1ccccc1)C1CCC2(SCCS2)c2[nH]c3ccccc3c21)OC (stereo not given)      0
10          COC(=O)c1ccc(NCc2cc(O)ccc2O)cc1O      0
11  COc1cc2c(cc1OC)NC(=O)NC(Cc1ccc3c(c1)OCO3)CC2 (stereo not given)      0
12  CC12Oc3ccc4ccccc4c3C1c1c(ccc3ccccc13)O2 (stereo not given)      0
13                        NCc1ccccc1C1CSCSC1      0
14  CC1CN(c2ccc(Cl)cc2)CC(C)(C)OC(=O)O1 (stereo not given)      0
15  COc1ccc2ccccc2c1C1NC(=O)c2ccccc2N1 (stereo not given)      1
16             Oc1ccc2oc3c(O)c4ccccc4cc3c2c1      0
17     Cc1cc2c(C)nn(Cc3ccccc3)c2c(C(N)=O)c1C      0
18               c1ccc2c(c1)Nc1nc3nonc3nc1N2      0
19  O=C(ON=c1c2ccccc2ccc2ccccc12)c1cc([N+](=O)[O-])cc([N+](=O)[O-])c1      0
20         C/C(=N\Nc1nc2ccccc2[nH]1)c1ccncn1      1
21  COc1cc(C2C(Cl)C(=O)N2NC(=O)c2ccc(NC(C)=O)cc2)cc(Br)c1O (stereo not given)      0
22                     CSc1nncc2[nH]c(C)nc12      0
23    CCCCSC1=N/C(=C\c2ccc(N(C)C)cc2)C(=O)N1      0
24  COc1ccc(C23OCC(Cc4cc(OC)c(OC)cc42)C3CO)cc1OC (stereo not given)      0
25  O=C(NN=C(c1ccccc1)c1ccccc1)/C(O)=C/C(=O)c1ccc(Cl)cc1      0
26               COC(=O)/C=C/c1ccc2c(c1)CCC2      0
27              Cc1ccnc(NC(=S)Nc2ccccc2Cl)c1      0
28  Oc1nc2nnc(COc3ccc(Cl)cc3Cl)n2nc1Cc1ccccc1      0
29  CC1(C)C2CC3C4CC5(Nc6ccccc6C5N41)[C@]3(C)CC2=O (stereo not given in full)      0
30     Cn1c2c(c3c(=O)[nH]ncc31)CCCc1ccccc1-2      0
31                CNC(=O)c1nnn(Cc2ccccc2)c1S      0
32  CC(=O)c1ccc(NC(=O)/C(=N\NC(N)=O)C(C#N)CC(C)(C)C=O)cc1 (stereo not given)      0
33  COc1ccc2c(c1)CC[C@@H]1[C@@H]2CC[C@]2(C)C(=O)/C(=C/c3ccc(O)c(OC)c3)C[C@@H]12      0
34  N=C1NC(c2ccc(Cl)cc2)=CC(c2cccc(Cl)c2)S1 (stereo not given)      0
35  CC(=O)OCC1OC(N2C(=O)C(=O)c3cc(C)ccc32)C(OC(C)=O)C(OC(C)=O)C1OC(C)=O (stereo not given)      0
36  c1ccc2c(c1)[nH]c1c2cc[n+]2cc3c(cc12)CCCC3      0
37  c1ccc([P+](CCC[P+](c2ccccc2)(c2ccccc2)c2ccccc2)(c2ccccc2)c2ccccc2)cc1      0
38  COC(=O)C(C/C=C(\C)c1ccccc1)C(C)=O (stereo not given)      0
39                          O=C(O)CSC1=NCCN1      0
40  Clc1ncnc2c1ncn2CCCCCCCCCCCCn1cnc2c(Cl)ncnc21      0
41  O=C1NC(Cc2ccc(O)cc2)C(=O)NC1Cc1ccc(O)cc1 (stereo not given)      0
42  Oc1cc(-c2ccc(Oc3ccccc3)cc2)nc2cc3c(cc12)OCO3      0
43  COc1ccc(C(=O)N=C2N(c3ccccc3)C(=N/c3ccccc3)/C(=N\c3ccccc3)N2c2ccccc2)cc1      0
44  O=c1oc2ccc3ccccc3c2cc1-c1nnc(-c2ccc([N+](=O)[O-])cc2)[nH]1      0

====

system: K562; assay: NCI tumour cell line growth inhibition, 48 h
The source made the active and inactive calls. No stated cut-off is given here; in the data, active = GI50 up to about 1.1 µM and inactive = higher.
GI50 values, listed per item
measured.metric: GI50

In [3]: df
Out[3]:
                                   compound  measured_metric          measurement
0  CC(C)(c1ccccc1)c1ccc(Oc2ccc(C#N)c(C#N)c2)cc1             GI50     15 µM (inactive)
1  O=C1c2ccccc2C2(O)NC(=S)N(c3ccccc3)C12O (stereo not given)             GI50  > 100 µM (inactive)
2  O=NN(CCF)C(=O)NC1CC2CCC1C2 (stereo not given)             GI50   > 53 µM (inactive)
3  CC12c3ccccc3C(OC=O)(c3ccccc31)C1(C)c3ccccc3C2(OC=O)c2ccccc21             GI50  > 100 µM (inactive)
4        CCN(CC)C(=O)N[C@@H](CC(C)C)C(=O)NC             GI50  > 100 µM (inactive)

====

tested on: NCI-H226; test: NCI tumour cell line growth inhibition, 48 h
Active and inactive are the calls of the source. Cut-off read from the data, not from the text of the source: active = GI50 up to about 1.1 µM and inactive = higher.
Labels: active, inactive

>>> df
                                   compound  target_or_system     group
0  O=C(c1ccccc1O)c1cc(-c2ncc3c(=O)c4ccccc4oc3n2)c(-c2ccccc2O)[nH]c1=O          NCI-H226  inactive
1           C=CCSc1nc2ccccc2c(=O)n1Cc1ccco1          NCI-H226  inactive
2  Nc1n[n+]2cc(-c3ccccc3)n(CC(=O)c3ccccc3)c2s1          NCI-H226  inactive
3  C(=N\c1ccc(-c2nc3ccccc3[nH]2)cc1)/c1cccs1          NCI-H226  inactive
4  COc1ccc(C23OCC(Cc4cc(OC)c(OC)cc42)C3CO)cc1OC (centres undefined)          NCI-H226  inactive
5  COc1cc2c(c(OC)c1)/C(=C/Sc1ccccc1)C(=O)N(C(C)(C)C)C2          NCI-H226  inactive
6         C/C(=N\Nc1nc2ccccc2[nH]1)c1ccncn1          NCI-H226    active
7  c1ccc(C2Nc3ccccc3C3OCCCC23)cc1 (centres undefined)          NCI-H226  inactive
8  CCOC(=O)c1cc([N+](=O)[O-])c(Sc2ncnc3nc[nH]c23)c([N+](=O)[O-])c1          NCI-H226  inactive

====

test system: IGROV-1; test: NCI tumour cell line growth inhibition, 48 h
Calls of active or inactive are those of the source. Cut-off read from the data, not from the text of the source: active = GI50 up to about 1.1 µM and inactive = higher. Square brackets hold non-standard residues; d marks the D form. Peptide text beside a SMILES is read from it. Ac5c = NC1(C(=O)O)CCCC1

molecule	GI50
CCOP(=O)(C/C=C/Cn1nc(Br)c(=O)[nH]c1=O)OCC	> 100 µM (inactive)
CCOC(=O)/C(C(N)=O)=C(O)/C(O)=C(\Br)C(=O)c1ccccc1	15.9 µM (inactive)
CCOC(=O)c1c(-c2ccc(OC)cc2)c(C#N)c(=S)n(C2OC(CO)C(O)C(O)C2O)c1-c1ccccc1 (configuration not stated)	59.6 µM (inactive)
O=C1O[C@H](c2ccc3c(c2)OCO3)[C@H]2CO[C@@H](c3ccc4c(c3)OCO4)[C@@H]12	> 100 µM (inactive)
CC(C)C1OC2(C)OC(=N)C1(C#N)C(C#N)(C#N)C2C (configuration not stated)	> 10 µM (inactive)
COC(=O)C(=O)C(C(=O)C(=O)Nc1ccc(C)cc1)c1nc2ccc(C(=O)c3ccccc3)cc2nc1O (configuration not stated)	> 100 µM (inactive)
COC(=O)c1c(CC(=O)OC(C)C)cc2n(c1=O)Cc1c-2nc2ccccc2c1OC	83.9 µM (inactive)
Cc1nc(-c2nc(C)c(C(=O)/C=C/c3ccc([N+](=O)[O-])cc3)s2)sc1C(=O)/C=C/c1ccc([N+](=O)[O-])cc1	> 100 µM (inactive)
O=C1/C(=C/c2cccc(Oc3ccccc3)c2)N=C(c2ccccc2)N1c1nc2ccc(Sc3ccccc3)cc2[nH]1	46.9 µM (inactive)
O=C1c2c(n(Cc3ccccc3)c(=O)n2Cc2ccccc2)C(=O)N1Cc1ccccc1	93.5 µM (inactive)
NCC(=O)NC1(C(=O)O)CCCC1 (H-Gly-[Ac5c]-OH)	> 100 µM (inactive)
Cc1ccc2c(C(=O)c3c(C)n(CCN4CCOCC4)c4ccccc34)cccc2c1	19.3 µM (inactive)
O=C(CC1(O)C(=O)Nc2ccccc21)c1ccc2ccccc2c1 (configuration not stated)	> 100 µM (inactive)
c1ccc(CNc2ccc3[nH]c4cnccc4c3c2)cc1	16.8 µM (inactive)
Cn1c2c(c3c(=O)[nH]ncc31)CCCc1ccccc1-2	24.5 µM (inactive)
O=C(NCCN(CCNC(=O)c1cccc(O)c1O)CCNC(=O)c1cccc(O)c1O)c1cccc(O)c1O	4.73 µM (inactive)
S=c1[nH]nc(Cn2c3ccc(Br)cc3c3nc4ccccc4nc32)n1C1CCCCC1	21.4 µM (inactive)
CCCCCCCCOCC(O)COC(=O)CCCCCCC (configuration not stated)	> 100 µM (inactive)
COC1OC(C(C)O)C2OC(C)(C)OC12 (configuration not stated)	> 100 µM (inactive)
Clc1ccc(Cc2nc3cc(Cl)c(Cl)cc3n2CC2CCCN3CCCCC23)cc1 (configuration not stated)	8.87 µM (inactive)
COc1ccc(C2[C@H]3C(=O)N(c4ccc(Cc5ccc(N6C(=O)[C@@H]7ON(c8ccccc8)C(c8ccc(OC)cc8)[C@@H]7C6=O)cc5)cc4)C(=O)[C@H]3ON2c2ccccc2)cc1 (some centres not stated)	> 100 µM (inactive)
CC(=O)OCC1OC(N2C(=O)C(=O)c3cc(C)ccc32)C(OC(C)=O)C(OC(C)=O)C1OC(C)=O (configuration not stated)	46 µM (inactive)
